Tested on: ADP-induced platelet aggregation
MEASUREMENT_NOTES: Inhibition of ADP-induced platelet aggregation in rats ex vivo (Born's method)
Design: species or system rat
ASSAY_CONDITIONS: ex vivo 2 h after oral dose 7.8 μmol/kg, male Wistar rats, ADP 1.0 μM, mean ± SD n = 6
RECORDED_ENDPOINT: Platelet Aggregation (%)
Answers are plain numbers, in %.

Record Platelet Aggregation (%) per entry; entries follow.
1. COC(=O)[C@H](c1ccccc1Cl)N1CCc2sc(OC(C)=O)cc2C1 [vicagrel, reference compound]
2. [2H]C([2H])([2H])OC(=O)[C@H](c1ccccc1Cl)N1CCc2sc(OC(=O)C3CC3)cc2C1 [Compound 10e]
3. [2H]C([2H])([2H])OC(=O)[C@H](c1ccccc1Cl)N1CCc2sc(OC(=O)CCC)cc2C1 [Compound 10c]
4. Cl.[2H]C([2H])([2H])OC(=O)[C@H](c1ccccc1Cl)N1CCc2sc(OC(=O)c3ccccc3)cc2C1 [Compound 10k]
5. [2H]C([2H])([2H])OC(=O)[C@@H](c1ccccc1Cl)N1CCc2sc(OC(C)=O)cc2C1 [Compound R-10a]

1. 20.0
2. 24.6
3. 29.9
4. 43.6
5. 57.4

Record Platelet Aggregation (%) per entry; entries follow.
1. [2H]C([2H])([2H])OC(=O)[C@H](c1ccccc1Cl)N1CCc2sc(OC(=O)C(C)(C)C)cc2C1 [Compound 10f]
2. [2H]C([2H])([2H])OC(=O)[C@H](c1ccccc1Cl)N1CCc2sc(OC(=O)CCCCCCCCCCC)cc2C1 [Compound 10i]
3. [2H]C([2H])([2H])OC(=O)[C@H](c1ccccc1Cl)N1CCc2sc(OC(=O)c3ccccc3C(F)(F)F)cc2C1 [Compound 10l]
4. [2H]C([2H])([2H])OC(=O)[C@H](c1ccccc1Cl)N1CCc2sc(OC(=O)c3cccnc3)cc2C1 [Compound 10m]
5. Cl.[2H]C([2H])([2H])OC(=O)[C@H](c1ccccc1Cl)N1CCc2sc(OC(=O)CC)cc2C1 [Compound 10b]

1. 44.7
2. 49.7
3. 49.2
4. 37.4
5. 24.9

Record Platelet Aggregation (%) per entry; entries follow.
1. [2H]C([2H])([2H])OC(=O)[C@H](c1ccccc1Cl)N1CCc2sc(OC(=O)C=Cc3ccccc3)cc2C1 [Compound 10j]
2. [2H]C([2H])([2H])OC(=O)[C@H](c1ccccc1Cl)N1CCc2sc(OC(C)=O)cc2C1 [Compound 10a]
3. [2H]C([2H])([2H])OC(=O)[C@H](c1ccccc1Cl)N1CCC2SC(=O)C=C2C1 (stereo partly drawn) [Compound 9]
4. Cl.[2H]C([2H])([2H])OC(=O)[C@H](c1ccccc1Cl)N1CCc2sc(OC(=O)C(C)C)cc2C1 [Compound 10d]
5. [2H]C([2H])([2H])OC(=O)[C@H](c1ccccc1Cl)N1CCc2sc(OC(=O)C(C)(C)CC)cc2C1 [Compound 10h]
6. COC(=O)[C@H](c1ccccc1Cl)N1CCc2sccc2C1 [clopidogrel, Clopidogrel]
7. O=S(=O)(O)O.[2H]C([2H])([2H])OC(=O)[C@H](c1ccccc1Cl)N1CCc2sccc2C1 [Compound 8]

1: 56.4; 2: 17.3; 3: 21.2; 4: 36.3; 5: 48.5; 6: 59.8; 7: 36.6

I'd like to know its Platelet Aggregation (%). The molecule in question is [2H]C([2H])([2H])OC(=O)[C@H](c1ccccc1Cl)N1CCc2sc(OC(=O)CCCCC)cc2C1 [Compound 10g] 35.2
